- ASSAY_REMARKS: Aqueous solubility, direct UV kinetic solubility method
- Type: physicochemical
- CONDITION_SET: pION's buffer, aqueous buffer, kinetic from dmso stock; pH 5.0; read-out: Aqueous Solubility in pION's buffer
OBSERVATION_TYPE: solubility at 18 h

*Q* State the recorded solubility at 18 h for this entry: `COc1cc2nc(C3CC3)nc(N3CCN(c4ccccc4OC)CC3)c2cc1OC`
*A* > 125 µg/mL

====

- SYSTEM_UNDER_TEST: UniProtKB P30989
- Sequence (P30989 whole entry, species assumed): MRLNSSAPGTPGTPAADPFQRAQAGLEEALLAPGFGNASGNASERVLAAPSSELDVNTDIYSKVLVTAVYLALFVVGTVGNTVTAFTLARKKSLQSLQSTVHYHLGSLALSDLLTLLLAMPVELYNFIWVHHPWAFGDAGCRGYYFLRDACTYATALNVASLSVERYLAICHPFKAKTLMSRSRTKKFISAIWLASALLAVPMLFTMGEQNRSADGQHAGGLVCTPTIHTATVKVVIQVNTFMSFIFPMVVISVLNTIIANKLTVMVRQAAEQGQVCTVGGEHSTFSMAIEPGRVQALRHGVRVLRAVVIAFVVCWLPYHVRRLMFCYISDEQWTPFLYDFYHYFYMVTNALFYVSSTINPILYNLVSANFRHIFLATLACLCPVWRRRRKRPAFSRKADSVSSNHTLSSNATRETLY
- ASSAY_REMARKS: NTR1 high-content imaging (HCS) dose response, NTR1-U2OS cells
- CONDITION_SET: Ave. ± S.E.M., n = 4 unless otherwise noted; read-out: HCS NTR1 Potency EC50
Response field label takes Fulfilled when EC50 is strictly below 20 µM and Not fulfilled in all other cases.

record_smiles=COc1cc2nc(C3CCCC3)nc(N3CCN(c4ccccc4OC)CC3)c2cc1OC class=Fulfilled
record_smiles=COc1cc2nc(C3CC3)nc(N3CCN(c4ccccc4OC)CC3)c2cc1OC class=Fulfilled
record_smiles=COc1cc2nc(C3CCC3)nc(N3CCN(c4ccccc4Cl)CC3)c2cc1OC class=Fulfilled
record_smiles=COc1ccccc1N1CCN(c2nc(C3CCC3)nc3ccccc23)CC1 class="Not fulfilled"
record_smiles=COc1cc2nc(-c3ccccc3)nc(N3CCN(c4ccc(F)cc4)CC3)c2cc1OC class="Not fulfilled"
record_smiles=COc1cc2nc(C3CCC3)nc(N3CCN(c4c(C)cccc4C)CC3)c2cc1OC class="Not fulfilled"

*Q* hey, is EC50 for `COc1cc2nc(C3CC3)nc(N3CCN(Cc4ccc(C)cc4)CC3)c2cc1OC` lower than 20 µM or not?
*A* Not fulfilled

*Q* Then what about the compound `COc1ccc2nc(C3CC3)nc(N3CCN(c4ccccc4OC)CC3)c2c1` ?
*A* Fulfilled

*Q* Same read-out for `COc1ccccc1N1CCN(c2nc(C3CCC3)nc3cc4c(cc23)OCO4)CC1` ?
*A* Not fulfilled

*Q* Now consider `COc1cc2nc(C3CCC3)nc(N3CCN(c4ccccc4[N+](=O)[O-])CC3)c2cc1OC` and answer again.
*A* Not fulfilled

*Q* Another: `COc1cccc(N2CCN(c3nc(C4CCC4)nc4cc(OC)c(OC)cc34)CC2)c1`
*A* Fulfilled
